Biological target: Abf1 (UniProt P14164)
Sequence: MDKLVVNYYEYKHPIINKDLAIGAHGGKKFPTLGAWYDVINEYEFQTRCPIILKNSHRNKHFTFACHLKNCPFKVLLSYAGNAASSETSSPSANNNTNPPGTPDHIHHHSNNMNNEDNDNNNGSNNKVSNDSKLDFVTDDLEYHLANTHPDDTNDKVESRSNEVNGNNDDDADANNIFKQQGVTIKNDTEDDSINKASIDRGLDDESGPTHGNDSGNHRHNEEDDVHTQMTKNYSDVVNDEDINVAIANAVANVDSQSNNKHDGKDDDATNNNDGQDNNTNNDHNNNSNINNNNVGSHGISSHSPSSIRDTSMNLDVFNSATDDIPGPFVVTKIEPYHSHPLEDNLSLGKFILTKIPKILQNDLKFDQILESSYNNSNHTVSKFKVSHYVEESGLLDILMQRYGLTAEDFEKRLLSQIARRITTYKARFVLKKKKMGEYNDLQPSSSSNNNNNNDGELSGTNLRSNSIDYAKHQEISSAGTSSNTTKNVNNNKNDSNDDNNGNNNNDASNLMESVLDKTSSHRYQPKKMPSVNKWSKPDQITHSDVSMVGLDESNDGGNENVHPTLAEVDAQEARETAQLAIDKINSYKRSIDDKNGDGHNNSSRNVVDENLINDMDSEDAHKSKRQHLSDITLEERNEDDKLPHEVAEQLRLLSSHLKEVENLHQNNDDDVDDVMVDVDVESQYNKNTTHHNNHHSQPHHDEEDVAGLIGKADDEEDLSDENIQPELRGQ
Experiment: PBM E-score (8-mer binding enrichment) (E-score (-0.5 to 0.5)); higher = stronger / more preferred TF binding
Settings: protein concentration: 200 nM; construct: GST-full length
Whole data set: some 33,000 sequences, median “E-score (-0.5 to 0.5)” near -0.015, cut for the highest 2% near 0.3. For the sample, the highest values were picked, then their nearest neighbours and some sequences at random.
PBM E-score values for the sequences below.

SEQUENCE_RECORD	PBM E-score
ACGAAAGC	0.356
AGGTGACA	0.362
AACAGCTG	-0.0093
GATAATAA	0.24
TAATCGGA	0.0729
GATAGGTA	0.0863
CAAGAACG	0.123
CAGAGTAG	-0.205
ATACGGTC	0.26
CGAATACG	0.189
CGGTGACC	0.0798
AATGATGA	0.282
TACCGCGA	-0.111
CATAGCAG	-0.126
AATGATTA	0.273
CTCGAATC	-0.0489
AAACGGTG	0.129
CACGCCGG	-0.0297
CATAAACG	0.22
CAGTGATA	0.377
GGTCTTTA	0.0661
TGGTGACA	0.357
GTCCTCAC	0.0512
CTACGGTA	0.138
TCACGTCA	0.331
AAGTGATA	0.39
ATTCGTAA	0.203
AAGTCCCC	-0.149
CGGTGACA	0.399
CTGACGTC	0.137
CGTCTTTA	0.301
TCTACCAA	-0.0268
ACGAAACA	0.245
ATGCACGG	0.258
TAAGATGA	0.182
CGCGCAGA	0.103
GAATATCA	0.334
AGACGTCA	0.107
AGACTTCA	-0.0675
AAATATGC	0.0361
ACACGTCA	0.151
CACTGATA	-0.056
ATTCGTAC	0.408
AAGTGTTC	-0.0135
AAATATTA	0.217
AAACCGCG	-0.0683
TAGTGAGA	0.0964
CTCCCGGA	-0.117
GCCCCTTA	-0.138
AATGATAG	0.229
CAGTGAGA	0.0837
AAATATGA	0.0696
TAATATGA	0.261
ACCATCCC	-0.155
CGGTGACG	0.235
GTTGGTCA	0.221
TAGTGAAA	-0.0802
ATGCACGC	-0.131
CTTCGTAA	0.161
GGTCGACA	-0.106
GTGCACGA	0.187
TAATATCA	0.344
ATTCGTCA	0.164
GAGTGAGA	0.0215
GCACGTCA	0.0421
ACGATGGG	-0.08
ACCTTGGG	-0.0211
CAATATCA	0.283
ATTCGTAG	0.191
ACGAAAAG	0.218
GATGATAA	0.36
CGGCGCCC	-0.143
ACGAAGAA	0.288
CGTCCTAC	-0.0375
AATGATGG	0.0838
GGGTGACA	0.257
CGTCTTTC	0.0707
ATTCGTCG	0.31
